Provide the reported pIC50 of each item.
molecular target: human S1P1 receptors (Homo sapiens, UniProt P21453); assay: S1P1R antagonist assay (fluorescent membrane potential dye, cAMP readout); details: HEK293 cells expressing human S1P1 receptors and CNG channel; 500 nM NECA; S1P1R agonist 10 nM; 90 minutes; read-out: EC50 or IC50 value
Sequence (P21453 whole entry): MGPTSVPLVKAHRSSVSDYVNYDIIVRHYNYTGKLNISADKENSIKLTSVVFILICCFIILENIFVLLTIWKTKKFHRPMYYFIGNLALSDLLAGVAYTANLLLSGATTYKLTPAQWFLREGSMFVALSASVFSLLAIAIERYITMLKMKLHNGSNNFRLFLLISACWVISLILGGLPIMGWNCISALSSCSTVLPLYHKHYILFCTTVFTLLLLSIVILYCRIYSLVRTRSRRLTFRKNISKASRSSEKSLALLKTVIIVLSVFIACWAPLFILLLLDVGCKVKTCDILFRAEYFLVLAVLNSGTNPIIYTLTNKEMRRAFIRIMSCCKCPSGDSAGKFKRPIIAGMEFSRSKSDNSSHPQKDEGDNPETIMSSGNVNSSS
pIC50: −log10 of the molar value.

See these solved cases before continuing.
* O=C(Nc1ccc(Oc2ccc(F)cc2)cc1)[C@@H]1C[C@@H](Cc2ccc(Cl)s2)CN1C(=O)Cn1nccn1 | ≥ 6.52
* COc1cccc(CC(=O)NC(COCc2ccccc2)C(=O)Nc2ccc(Oc3ccccc3)cc2)c1 (stereo not shown) | < 6.00
* COCC(=O)NC(COCc1ccccc1)C(=O)Nc1ccc(Oc2ccccc2)cc1 (stereo not shown) | < 6.00
* O=C(Nc1ccc(Oc2ccc(F)cc2)cc1)[C@@H]1C[C@@H](c2ccccc2)CN1C(=O)Cn1cncn1 | 6.00 to 6.52
* Cc1cc(CC(=O)NC(COCc2ccccc2)C(=O)Nc2ccc(Oc3ccccc3)cc2)on1 (stereo not shown) | ≥ 6.52

# map each compound to its pIC50
1. Cc1ccc(C[C@@H]2C[C@@H](C(=O)Nc3ccc(Oc4ccc(F)cc4)cc3)N(C(=O)Cn3cncn3)C2)cc1
2. O=C(Cn1nccn1)N[C@@H](COCc1ccccc1)C(=O)Nc1ccc(Oc2ccc(F)cc2)cc1

≥ 6.52
≥ 6.52

---

biological target: human S1P1 receptors (Homo sapiens, UniProt P21453); construct: host or cells: HEK293; experiment: S1P1R antagonist assay (fluorescent membrane potential dye, cAMP readout); type: cell-based; details: HEK293 cells expressing human S1P1 receptors and CNG channel; 500 nM NECA; S1P1R agonist 10 nM; 90 minutes; read-out: EC50 or IC50 value
Exercise: state measured IC50 for each of the compounds provided.

# annotated cases, reported IC50 shown
• CCCCC(CC)C(=O)NC(COCc1ccccc1)C(=O)Nc1ccc(Oc2ccccc2)cc1 (stereo not drawn) [Compound 282] = > 1 µM
• O=C(CCc1cnc[nH]1)N[C@@H](COCc1ccccc1)C(=O)Nc1ccc(Oc2ccc(F)cc2)cc1 [Compound 207] = ≤ 0.3 µM
• CC(C)CCC(=O)NC(COCc1ccccc1)C(=O)Nc1ccc(Oc2ccccc2)cc1 (stereo not drawn) [Compound 287] = > 1 µM
• O=C(Nc1ccc(Oc2ccc(F)cc2)cc1)[C@@H]1C[C@@H](Cc2ccc(Cl)cc2)CN1C(=O)Cn1ccnn1 [Compound 228] = ≤ 0.3 µM
• O=C(Nc1ccc(Oc2ccc(F)cc2)cc1)[C@@H]1C[C@@H](Cc2ccccc2)CN1C(=O)CN1CCOCC1 [Compound 116] = ≤ 0.3 µM
• COCCOCC(=O)NC(COCc1ccccc1)C(=O)Nc1ccc(Oc2ccccc2)cc1 (stereo not drawn) [Compound 303] = 0.3 to 1 µM
• O=C(NC(COCc1ccccc1)C(=O)Nc1ccc(Oc2ccccc2)cc1)c1cccc2[nH]ccc12 (stereo not drawn) [Compound 184] = 0.3 to 1 µM
• Cc1cc(CC(=O)N2C[C@H](Cc3ccccc3)C[C@H]2C(=O)Nc2ccc(Oc3ccc(F)cc3)cc2)n[nH]1 [Compound 177] = ≤ 0.3 µM
• O=C(NC(COCc1ccccc1)C(=O)Nc1ccc(Oc2ccccc2)cc1)c1cccnc1Cl (stereo not drawn) [Compound 296] = > 1 µM
• O=C(Cc1cccs1)NC(COCc1ccccc1)C(=O)Nc1ccc(Oc2ccccc2)cc1 (stereo not drawn) [Compound 293] = > 1 µM

Provide IC50 for all items below, preserving their order.
1. CCCCCC(=O)NC(COCc1ccccc1)C(=O)Nc1ccc(Oc2ccccc2)cc1 (stereo not drawn) [Compound 295]
2. Cc1cc(Br)ccc1C(=O)NC(COCc1ccccc1)C(=O)Nc1ccc(Oc2ccccc2)cc1 (stereo not drawn) [Compound 311]
3. COc1ccc(CCC(=O)N[C@@H](COCc2ccccc2)C(=O)Nc2ccc(Oc3ccc(F)cc3)cc2)cc1Cl [Compound 81]
4. O=C(NC(COCc1ccccc1)C(=O)Nc1ccc(Oc2ccccc2)cc1)c1cccc(Cl)c1F (stereo not drawn) [Compound 299]
5. O=C(CC[N+](=O)[O-])N[C@@H](COCc1ccccc1)C(=O)Nc1ccc(Oc2ccc(F)cc2)cc1 [Compound 245]

1. > 1 µM
2. > 1 µM
3. > 1 µM
4. > 1 µM
5. ≤ 0.3 µM
